target: human DGAT2 (Homo sapiens (Human), UniProt Q96PD7); experiment: DGAT2 Enzymatic Activity Assay; settings: Human DGAT2 IC50, hDGAT2 membrane prep from Sf-9 cells; 13C18-triolein product by LC/MS/MS
Sequence (Q96PD7 whole entry): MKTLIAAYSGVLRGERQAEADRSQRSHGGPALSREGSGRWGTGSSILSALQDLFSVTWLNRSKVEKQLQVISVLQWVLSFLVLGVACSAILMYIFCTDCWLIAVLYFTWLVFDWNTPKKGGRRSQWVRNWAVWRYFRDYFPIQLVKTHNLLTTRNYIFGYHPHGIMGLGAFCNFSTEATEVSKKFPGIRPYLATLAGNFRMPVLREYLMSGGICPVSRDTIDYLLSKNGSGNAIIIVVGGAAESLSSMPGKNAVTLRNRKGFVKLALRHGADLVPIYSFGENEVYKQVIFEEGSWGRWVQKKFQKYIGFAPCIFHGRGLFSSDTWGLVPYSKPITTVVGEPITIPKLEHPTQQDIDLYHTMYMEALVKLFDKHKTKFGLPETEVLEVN
pIC50: −log10 of the molar value.
Documented pIC50 across a set of compounds
Measured metric: pIC50

Compound	Tested on	Measured metric	Experimental value
Cn1c(C(=O)NC2(C)CCS(=O)(=O)CC2)nc2cnc(Oc3ncc(Cl)cc3OCC(F)F)c(F)c21	human DGAT2 (Homo sapiens (Human), UniProt Q96PD7)	pIC50	8.48
Cc1nc2nc(C(=O)NC3(C)CCS(=O)(=O)CC3)n(C)c2cc1Oc1ncc(Cl)cc1OCC(F)F	human DGAT2 (Homo sapiens (Human), UniProt Q96PD7)	pIC50	7.41
Cc1c(Oc2ncc(Cl)cc2OCC(F)(F)F)ccc2nc(C(=O)NC3(C)CCS(=O)(=O)CC3)n(C)c12	human DGAT2 (Homo sapiens (Human), UniProt Q96PD7)	pIC50	9.22
Cn1c(C(=O)NC2(C)CCS(=O)(=O)CC2)nc2c(F)cc(Oc3ncc(Cl)cc3OCC(F)F)cc21	human DGAT2 (Homo sapiens (Human), UniProt Q96PD7)	pIC50	8.57
Cc1cc(Oc2ncc(Cl)cc2OCC(F)F)nc2c1nc(C(=O)NC1(C)CCS(=O)(=O)CC1)n2C	human DGAT2 (Homo sapiens (Human), UniProt Q96PD7)	pIC50	8.36
Cn1c(C(=O)NC2(C)CCS(=O)(=O)CC2)nc2cc(F)c(Oc3ncc(Cl)cc3OCC(F)F)nc21	human DGAT2 (Homo sapiens (Human), UniProt Q96PD7)	pIC50	8.82
Cn1c(C(=O)NC2(C)CCS(=O)(=O)CC2)nc2ccc(OCC(OCC(F)F)C(F)(F)F)nc21 (single isomer, unassigned) [Example 64a]	human DGAT2 (Homo sapiens (Human), UniProt Q96PD7)	pIC50	5.78
CC1(NC(=O)c2nc3ncc(Oc4ncccc4OCC(F)(F)F)cc3o2)CCS(=O)(=O)CC1	human DGAT2 (Homo sapiens (Human), UniProt Q96PD7)	pIC50	6.17
CCC(COc1ccc2nc(C(=O)NC3(C)CCS(=O)(=O)CC3)n(C)c2n1)OCC(F)F (centres unmarked)	human DGAT2 (Homo sapiens (Human), UniProt Q96PD7)	pIC50	8.52
Cn1c(C(=O)NC2(C)CCS(=O)(=O)CC2)nc2ccc(Oc3ncccc3OCC(F)(F)F)cc21	human DGAT2 (Homo sapiens (Human), UniProt Q96PD7)	pIC50	8.89
CC1(NC(=O)c2nc3cc(Oc4ncccc4OCC(F)(F)F)ccc3o2)CCS(=O)(=O)CC1	human DGAT2 (Homo sapiens (Human), UniProt Q96PD7)	pIC50	6.03
Cn1c(C(=O)NC2(C)CCS(=O)(=O)CC2)nc2cc(Cl)c(Oc3ncc(Cl)cc3OCC(F)F)nc21	human DGAT2 (Homo sapiens (Human), UniProt Q96PD7)	pIC50	7.07
Cn1c(C(=O)NC2(C)CCS(=O)(=O)CC2)nc2ccc(OCC(OCC(F)F)C(F)F)nc21 (single isomer, unassigned) [Example 65a]	human DGAT2 (Homo sapiens (Human), UniProt Q96PD7)	pIC50	6.67
Cn1c(C(=O)NC2(C)CCS(=O)(=O)CC2)nc2cnc(Oc3ncc(Cl)cc3OCC(F)F)nc21	human DGAT2 (Homo sapiens (Human), UniProt Q96PD7)	pIC50	7.24
Cc1c(Oc2ncc(Cl)cc2OCC(F)F)cnc2nc(C(=O)NC3(C)CCS(=O)(=O)CC3)n(C)c12	human DGAT2 (Homo sapiens (Human), UniProt Q96PD7)	pIC50	8.11
Cn1c(C(=O)NC2(C)CCS(=O)(=O)CC2)nc2cnc(Oc3ncc(Cl)cc3OCC(F)F)cc21	human DGAT2 (Homo sapiens (Human), UniProt Q96PD7)	pIC50	7.80
CC(C)n1c(C(=O)NC2(C)CCS(=O)(=O)CC2)nc2nc(Oc3ncc(Cl)cc3OCC(F)F)ccc21	human DGAT2 (Homo sapiens (Human), UniProt Q96PD7)	pIC50	6.27
Cc1c(Oc2ncc(Cl)cc2OCC(F)(F)F)ccc2c1nc(C(=O)NC1(C)CCS(=O)(=O)CC1)n2C	human DGAT2 (Homo sapiens (Human), UniProt Q96PD7)	pIC50	7.36
Cn1c(C(=O)NC2(C)CCS(=O)(=O)CC2)nc2ccc(OCC(CC(F)(F)F)OC(F)F)nc21 (single isomer, unassigned) [Example 62a]	human DGAT2 (Homo sapiens (Human), UniProt Q96PD7)	pIC50	5.88
Cn1c(C(=O)NC2(C)CCS(=O)(=O)CC2)nc2ccc(OCC(CC(F)(F)F)OCC(F)F)nc21 (single isomer, unassigned) [Example 63b]	human DGAT2 (Homo sapiens (Human), UniProt Q96PD7)	pIC50	9.10
Cn1c(C(=O)NC2(C)CCS(=O)(=O)CC2)nc2ccc(OCc3ncc(Cl)cc3OCC(F)F)nc21	human DGAT2 (Homo sapiens (Human), UniProt Q96PD7)	pIC50	8.64
CC1(NC(=O)c2nc3ccc(Oc4ncc(Cl)cc4OCC(F)F)nc3s2)CCS(=O)(=O)CC1	human DGAT2 (Homo sapiens (Human), UniProt Q96PD7)	pIC50	8.70
Cn1c(C(=O)NC2(C)CCS(=O)(=O)CC2)nc2ccc(Oc3ncc(Cl)cc3OCC(F)(F)F)c(Cl)c21	human DGAT2 (Homo sapiens (Human), UniProt Q96PD7)	pIC50	8.66

Provenance of the data: patent US20240254114A1
